# Test system: NCI-H226
# Method summary: NCI tumour cell line growth inhibition, 48 h
Calls of active or inactive are those of the source. Rule as the data show it: active = GI50 up to about 1.1 µM and inactive = higher.
Experimental readout: GI50

Known GI50 results, listed for orientation:
{"Molecule": "O=C(NCCCNC(=O)c1ccc2cc(O)c(O)cc2c1)c1ccc2cc(O)c(O)cc2c1", "Assay result": "18.4 µM (inactive)"}
{"Molecule": "Fc1ccccc1C1SCc2nc3cc4ccccc4cc3n21 (stereo not given)", "Assay result": "75.5 µM (inactive)"}
{"Molecule": "CCCCCCCCCCCCCC(=O)OCC1OC(n2cc(F)c(=O)[nH]c2=O)C(NC(=O)OCc2ccccc2)C(OC(=O)CCCCCCCCCCCCC)C1O (stereo not given)", "Assay result": "> 100 µM (inactive)"}
{"Molecule": "CC1=C2CC(C)(C)CC(=O)C2(C)CCC1=O (stereo not given)", "Assay result": "> 100 µM (inactive)"}
{"Molecule": "CC1=C(C(=O)Nc2c(C)cccc2C)C(c2ccc3c(c2)OCO3)C(C(=O)Nc2c(C)cccc2C)=C(C)N1", "Assay result": "17.5 µM (inactive)"}

For NCI-H226, provide GI50 of CN1COCc2c1ccc1cc3ccc4c(c3nc21)COCN4S(C)(=O)=O please.
> 100 µM (inactive)

Next molecule up: COc1cc(/C=C/C(=O)Oc2ccc(NC(C)=O)cc2)ccc1C(=O)OCc1ccccc1
> 100 µM (inactive)

Please answer likewise for CCCCc1ccc(-n2c3nc(=O)n(C)c(=O)c-3nc3ccccc32)cc1
11.7 µM (inactive)

Now this one: Cc1cc2ccccc2n1CC(=O)N1CCCC1
> 100 µM (inactive)

Same lookup for O=S(=O)(c1ccc(Br)cc1)n1c2ccc(Br)cc2c2nc3ccccc3nc21 , please.
> 100 µM (inactive)

Reference for the values: ChEMBL document CHEMBL1201862
